Readings of protein stability index for the listed variants
B1: ZNF232 (parent)
chain: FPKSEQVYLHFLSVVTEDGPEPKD

variants of: B1; assay: protein stability index of a GFP-peptide fusion (GPS, HEK-293T) (PSI 1-6); higher = more stable; conditions: c terminus: a fixed tail appended;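 further: lentivirally expressed fusions sorted by FACS into six bins by GFP to DsRed ratio, PSI derived from sequencing read proportions per bin multiplied by bin number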
readout: protein stability index

# sequenceRecord, readout, readoutNumber
measured = [
    ("FPKSEQVYLHFLSVVTEDSPEPKD [G19S]", "protein stability index", 2.27),
    ("FPKSEQVYLHFLSVVLEDGPEPKD [T16L]", "protein stability index", 1.85),
    ("FPKSEQVYLHFLSVVTETGPEPKD [D18T]", "protein stability index", 1.76),
    ("FMKSEQVYLHFLSVVTEDGPEPKD [P2M]", "protein stability index", 2.28),
    ("FPKSEQVYLHFLSVVTEDNPEPKD [G19N]", "protein stability index", 2.69),
    ("EPKSEQVYLHFLSVVTEDGPEPKD [F1E]", "protein stability index", 4.82),
    ("FPKSEQVYLHFLSVVTEDGKEPKD [P20K]", "protein stability index", 2.47),
    ("FPKSEQVWLHFLSVVTEDGPEPKD [Y8W]", "protein stability index", 2.2),
    ("FPKSEPVYLHFLSVVTEDGPEPKD [Q6P]", "protein stability index", 1.92),
    ("FKKSEQVYLHFLSVVTEDGPEPKD [P2K]", "protein stability index", 2.91),
    ("FPKPEQVYLHFLSVVTEDGPEPKD [S4P]", "protein stability index", 1.95),
    ("FPKQEQVYLHFLSVVTEDGPEPKD [S4Q]", "protein stability index", 2.29),
    ("TPKSEQVYLHFLSVVTEDGPEPKD [F1T]", "protein stability index", 4.05),
    ("FPKSEQVYLHFLSVVTEDGPYPKD [E21Y]", "protein stability index", 1.68),
    ("FPKSEQVYLHFLSVVTEDGPEQKD [P22Q]", "protein stability index", 1.75),
    ("FPKSPQVYLHFLSVVTEDGPEPKD [E5P]", "protein stability index", 1.75),
    ("FPHSEQVYLHFLSVVTEDGPEPKD [K3H]", "protein stability index", 2.09),
    ("FPKSEQVYLHFLSVVTEDKPEPKD [G19K]", "protein stability index", 2.71),
    ("FPKSEQVYLHFLSVVTEDGPEPKL [D24L]", "protein stability index", 2.94),
    ("FPKSEQVYLHFLQVVTEDGPEPKD [S13Q]", "protein stability index", 1.53),
    ("FPKSEQVYLHFLSVVTEDGPEPKM [D24M]", "protein stability index", 1.56),
    ("FPKSHQVYLHFLSVVTEDGPEPKD [E5H]", "protein stability index", 2.31),
    ("FPKSEQVYLHFLSVVTEDGPWPKD [E21W]", "protein stability index", 1.7),
    ("FPKREQVYLHFLSVVTEDGPEPKD [S4R]", "protein stability index", 1.66),
    ("FPKNEQVYLHFLSVVTEDGPEPKD [S4N]", "protein stability index", 3.06),
    ("FPKSEQVYLHFLSVVTPDGPEPKD [E17P]", "protein stability index", 1.99),
    ("FPKSEQVYLHFLSVVTEGGPEPKD [D18G]", "protein stability index", 2.32),
    ("FPKSEQVYLHFLSVVTEDGPESKD [P22S]", "protein stability index", 1.81),
    ("FPKSEQVYLHNLSVVTEDGPEPKD [F11N]", "protein stability index", 3.18),
    ("FPKSEQVYLHFLSVVTEDGPEPKS [D24S]", "protein stability index", 1.71),
    ("FPKSDQVYLHFLSVVTEDGPEPKD [E5D]", "protein stability index", 2.84),
    ("FPKSEQVQLHFLSVVTEDGPEPKD [Y8Q]", "protein stability index", 3.33),
    ("FPKSEEVYLHFLSVVTEDGPEPKD [Q6E]", "protein stability index", 2.6),
    ("FPKSEQVYLHFLSVVTEDGCEPKD [P20C]", "protein stability index", 1.93),
    ("FPKSEQVYLHFLSVVTELGPEPKD [D18L]", "protein stability index", 2.61),
    ("FPKSEQVYLHFLSVVTEDGPEPKH [D24H]", "protein stability index", 1.35),
    ("FPKSETVYLHFLSVVTEDGPEPKD [Q6T]", "protein stability index", 2.37),
    ("FPKSEQVYLHFLSVVTEYGPEPKD [D18Y]", "protein stability index", 1.24),
    ("FHKSEQVYLHFLSVVTEDGPEPKD [P2H]", "protein stability index", 1.54),
    ("FPISEQVYLHFLSVVTEDGPEPKD [K3I]", "protein stability index", 2.23),
    ("FPKSEQVYLHFLSVVTEAGPEPKD [D18A]", "protein stability index", 1.73),
    ("FPKSEQVYLHFLSVVDEDGPEPKD [T16D]", "protein stability index", 2.26),
    ("FPKSEQVYLCFLSVVTEDGPEPKD [H10C]", "protein stability index", 2.81),
    ("FPKSEQVYLHFLSVVTEDVPEPKD [G19V]", "protein stability index", 1.5),
    ("FPKSEQVYLHFLCVVTEDGPEPKD [S13C]", "protein stability index", 2.31),
]
